Biological target: β3-Adrenoceptor (Mustela putorius furo)
Sequence (M3YEU4 entry or part of it): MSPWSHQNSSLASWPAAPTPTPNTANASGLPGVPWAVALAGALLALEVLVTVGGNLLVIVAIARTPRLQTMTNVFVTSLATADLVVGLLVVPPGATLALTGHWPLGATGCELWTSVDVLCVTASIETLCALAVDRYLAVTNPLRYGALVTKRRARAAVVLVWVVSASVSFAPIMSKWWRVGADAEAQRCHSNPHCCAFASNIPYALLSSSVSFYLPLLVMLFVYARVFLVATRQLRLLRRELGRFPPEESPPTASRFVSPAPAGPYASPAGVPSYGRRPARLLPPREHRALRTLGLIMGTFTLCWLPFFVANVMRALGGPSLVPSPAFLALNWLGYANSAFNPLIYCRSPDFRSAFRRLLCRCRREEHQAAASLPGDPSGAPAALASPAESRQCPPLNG
Assay: β3-Adrenoceptor stimulating effects: inhibition of spontaneous contractions of isolated ferret ureter (Magnus method)
Details: isolated male ferret ureter, cumulative addition every 3 minutes, read-out: EC50 value (concentration required to produce 50% inhibition of ureter contractions), Test Example 2

>  <entry_smiles>
C[C@H](NCCc1ccc(OCC(=O)O)cc1)[C@H](O)c1ccc(O)cc1

>  <EC50 [µM]>
0.014

$$$$
